test.system: Proto-oncogene tyrosine-protein kinase Src (Homo sapiens) (UniProt P12931)
Sequence (P12931 2-536 limits assumed): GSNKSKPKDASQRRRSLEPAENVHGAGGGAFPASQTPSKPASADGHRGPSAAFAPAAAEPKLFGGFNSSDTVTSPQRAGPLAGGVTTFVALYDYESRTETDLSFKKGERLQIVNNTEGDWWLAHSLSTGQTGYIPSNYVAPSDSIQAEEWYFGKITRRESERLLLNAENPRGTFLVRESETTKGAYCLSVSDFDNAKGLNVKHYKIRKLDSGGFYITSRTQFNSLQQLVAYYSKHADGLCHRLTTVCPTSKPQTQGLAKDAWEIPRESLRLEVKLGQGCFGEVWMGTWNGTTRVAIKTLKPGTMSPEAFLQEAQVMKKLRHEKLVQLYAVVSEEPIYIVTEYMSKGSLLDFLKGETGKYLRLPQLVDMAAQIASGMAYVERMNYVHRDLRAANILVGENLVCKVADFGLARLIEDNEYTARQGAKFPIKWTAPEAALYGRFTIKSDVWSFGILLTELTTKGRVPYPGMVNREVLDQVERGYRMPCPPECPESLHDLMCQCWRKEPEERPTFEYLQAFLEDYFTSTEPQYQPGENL
assay.overview: Percent inhibition determined against human recombinant p60 c-Src tyrosine kinase at 100 uM
measurement.type: inhibition (%)

INSERT INTO assay_data (substance_smiles, measurement_type, test_value) VALUES
  ('CCOC(=O)c1cc2cc(O)c(O)cc2[nH]1', 'inhibition', 28);

P = O=C(Nc1cccc(F)c1)c1cc2cc(O)ccc2[nH]1
Q = COC(=O)c1ccc(CNC(=O)c2cc3cc(O)ccc3[nH]2)cc1
Data request: Please indicate which entry, P or Q , has the lower recorded inhibition value. Answer format: the label of the selected item.
Data returned: Q
